- TARGET_UNDER_TEST: UniProtKB O61142
- Sequence (O61142 whole entry): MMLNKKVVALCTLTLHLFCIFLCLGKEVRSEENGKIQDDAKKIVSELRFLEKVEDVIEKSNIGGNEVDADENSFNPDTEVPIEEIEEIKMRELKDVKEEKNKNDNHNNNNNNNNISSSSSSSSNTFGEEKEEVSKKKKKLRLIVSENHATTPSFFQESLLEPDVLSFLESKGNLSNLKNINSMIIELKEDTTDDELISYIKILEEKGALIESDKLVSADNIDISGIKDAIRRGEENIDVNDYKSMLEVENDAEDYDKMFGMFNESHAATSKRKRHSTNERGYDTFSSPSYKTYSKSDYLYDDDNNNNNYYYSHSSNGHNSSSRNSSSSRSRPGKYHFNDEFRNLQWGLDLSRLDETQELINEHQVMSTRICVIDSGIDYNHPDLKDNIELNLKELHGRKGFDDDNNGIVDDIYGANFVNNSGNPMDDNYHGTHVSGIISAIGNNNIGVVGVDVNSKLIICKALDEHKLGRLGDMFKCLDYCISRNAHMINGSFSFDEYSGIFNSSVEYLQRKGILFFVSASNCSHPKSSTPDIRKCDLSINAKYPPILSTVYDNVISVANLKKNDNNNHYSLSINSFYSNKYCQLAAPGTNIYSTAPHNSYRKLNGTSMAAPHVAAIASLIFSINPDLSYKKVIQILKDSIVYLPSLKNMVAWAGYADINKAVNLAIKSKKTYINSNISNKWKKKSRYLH
- ASSAY_REMARKS: Inhibition of Plasmodium falciparum serine protease subtilisin-like protease 1 at 100 uM by fluorimetric assay
Starred links: 1 amine or outer side, 2 acyl side, 3 side chain; linkers in the order of their positions; H or OH if unused. Non-standard residues stand in square brackets, D forms with d. Residues, ends and D or L forms follow the SMILES beside them. *: point of attachment. X1 = C[C@H](N[*:1])C(=O)C(F)(F)C(=O)[*:2]; Cbz = O=C(OCc1ccccc1)*; OBn = c1ccc(CO*)cc1; Bn = c1ccc(C*)cc1; βAla = NCCC(=O)O
Assign TRUE to entries whose inhibition meets or exceeds 60%; assign FALSE to the rest.

(Q) Hello, I need to know if CC[C@H](C)[C@H](NC(C)=O)C(=O)N[C@H](C(=O)N[C@@H](C)C(=O)N[C@@H](C)C(=O)C(F)(F)C(=O)NCC(=O)O)[C@@H](C)O (HELM PEPTIDE1{[ac].I.T.A.[C[C@H](N[*:1])C(=O)C(F)(F)C(=O)[*:2]].G}$$$$V2.0) has measured inhibition not below 60%. Thanks!
(A) TRUE

(Q) Hello, I need to know if CC[C@H](C)[C@H](NC(=O)[C@H](CCCCN)NC(C)=O)C(=O)N[C@H](C(=O)N[C@@H](C)C(=O)N[C@@H](C)C(=O)C(F)(F)C(=O)NCCC(=O)O)[C@@H](C)O (HELM PEPTIDE1{[ac].K.I.T.A.[C[C@H](N[*:1])C(=O)C(F)(F)C(=O)[*:2]].[bAla]}$$$$V2.0) has measured inhibition not below 60%. Thanks!
(A) TRUE

(Q) Hello, I need to know if CC[C@H](C)[C@H](NC(=O)[C@H](CCCCNC(=O)OCc1ccccc1)NC(C)=O)C(=O)N[C@H](C(=O)N[C@@H](C)C(=O)N[C@@H](C)C(=O)C(F)(F)C(=O)NCCC(=O)OCc1ccccc1)[C@@H](C)OCc1ccccc1 (Ac-K(Cbz)IT(Bn)A[X1][βAla]-OBn) has measured inhibition not below 60%. Thanks!
(A) FALSE

(Q) Hello, I need to know if CC[C@H](C)[C@H](NC(C)=O)C(=O)N[C@H](C(=O)N[C@@H](C)C(=O)N[C@@H](C)C(O)C(F)(F)C(=O)NCC(=O)OCc1ccccc1)[C@@H](C)OCc1ccccc1 (mixture of isomers) has measured inhibition not below 60%. Thanks!
(A) FALSE

(Q) Hello, I need to know if CC[C@H](C)[C@H](NC(=O)[C@H](CCCCN)NC(C)=O)C(=O)N[C@H](C(=O)N[C@@H](C)C(=O)N[C@@H](C)C(=O)C(F)(F)C(=O)NCC(=O)O)[C@@H](C)O (HELM PEPTIDE1{[ac].K.I.T.A.[C[C@H](N[*:1])C(=O)C(F)(F)C(=O)[*:2]].G}$$$$V2.0) has measured inhibition not below 60%. Thanks!
(A) TRUE

====

- TARGET_UNDER_TEST: Subtilisin-like protease 1 (Plasmodium falciparum)
- ASSAY_REMARKS: Inhibition of Plasmodium falciparum serine protease subtilisin-like protease 1 at 100 uM by fluorimetric assay
Starred links: 1 amine or outer side, 2 acyl side, 3 side chain; linkers in the order of their positions; H or OH if unused. Non-standard residues stand in square brackets, D forms with d. Residues, ends and D or L forms follow the SMILES beside them. *: point of attachment. X1 = C[C@H](N[*:1])C(=O)C(F)(F)C(=O)[*:2]; X2 = C[C@H](N[*:1])C(O)C(F)(F)C(=O)[*:2]; Cbz = O=C(OCc1ccccc1)*; OBn = c1ccc(CO*)cc1; Bn = c1ccc(C*)cc1
MEASURED_PROPERTY: inhibition (%)
Answers are plain numbers, in %.

MOLECULE	inhibition / %
CC[C@H](C)[C@H](NC(C)=O)C(=O)N[C@H](C(=O)N[C@@H](C)C(=O)N[C@@H](C)C(=O)C(F)(F)C(=O)NCC(=O)OCc1ccccc1)[C@@H](C)OCc1ccccc1 (Ac-IT(Bn)A[X1]G-OBn)	59
CC(=O)N[C@H](C(=O)N[C@@H](C)C(=O)N[C@@H](C)C(=O)C(F)(F)C(=O)NCC(=O)O)[C@@H](C)O	6
CC[C@H](C)[C@H](NC(=O)[C@H](CCCCNC(=O)OCc1ccccc1)NC(C)=O)C(=O)N[C@H](C(=O)N[C@@H](C)C(=O)N[C@@H](C)C(=O)C(F)(F)C(=O)NCC(=O)OCc1ccccc1)[C@@H](C)OCc1ccccc1 (Ac-K(Cbz)IT(Bn)A[X1]G-OBn)	71

(Q) Entry CC[C@H](C)[C@H](NC(=O)[C@H](CCCCNC(=O)OCc1ccccc1)NC(C)=O)C(=O)N[C@H](C(=O)N[C@@H](C)C(=O)N[C@@H](C)C(O)C(F)(F)C(=O)NCC(=O)OCc1ccccc1)[C@@H](C)OCc1ccccc1 (some centres undefined) (Ac-K(Cbz)IT(Bn)A[X2]G-OBn) has what inhibition?
(A) 3

Values were extracted from ChEMBL document CHEMBL3352427.
